The origin of these recorded values is paper PMC3261798.

Molecular target: PKD1 (Homo sapiens, UniProt Q15139)
Sequence (Q15139 1-912): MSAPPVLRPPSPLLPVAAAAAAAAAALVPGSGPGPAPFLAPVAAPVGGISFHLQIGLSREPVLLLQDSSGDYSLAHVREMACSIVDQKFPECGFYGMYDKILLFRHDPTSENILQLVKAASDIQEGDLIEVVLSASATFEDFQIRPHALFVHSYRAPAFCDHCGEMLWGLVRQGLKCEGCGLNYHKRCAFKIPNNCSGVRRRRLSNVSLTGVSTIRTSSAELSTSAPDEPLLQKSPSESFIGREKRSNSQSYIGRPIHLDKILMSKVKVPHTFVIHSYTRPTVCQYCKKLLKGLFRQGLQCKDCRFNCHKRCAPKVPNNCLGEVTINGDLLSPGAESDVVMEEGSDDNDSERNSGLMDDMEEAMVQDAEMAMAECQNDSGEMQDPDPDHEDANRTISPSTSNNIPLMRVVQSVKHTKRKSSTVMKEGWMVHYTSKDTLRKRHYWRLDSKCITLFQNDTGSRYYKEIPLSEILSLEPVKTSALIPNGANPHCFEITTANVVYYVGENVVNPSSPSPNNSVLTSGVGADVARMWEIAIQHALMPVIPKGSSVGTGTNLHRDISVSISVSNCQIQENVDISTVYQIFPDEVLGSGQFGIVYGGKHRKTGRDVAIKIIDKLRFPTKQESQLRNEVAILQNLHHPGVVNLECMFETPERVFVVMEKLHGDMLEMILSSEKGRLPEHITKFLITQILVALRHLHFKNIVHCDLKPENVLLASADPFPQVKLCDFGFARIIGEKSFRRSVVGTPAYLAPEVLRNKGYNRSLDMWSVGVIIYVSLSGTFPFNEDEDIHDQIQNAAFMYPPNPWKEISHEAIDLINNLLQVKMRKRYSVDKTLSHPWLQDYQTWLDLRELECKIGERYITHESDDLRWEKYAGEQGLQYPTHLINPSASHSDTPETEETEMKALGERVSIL
Assay: In vitro radiometric PKD kinase activity assay
Format: biochemical
Design: purchased Biomol International
Conditions: mean ± SEM, n = number of independent experiments; read-out: IC50 Radiometric PKD1
pIC50: −log10 of the molar value.
experimental_endpoint: pIC50

molecule: COc1ccc2sc3c(c2c1)SCCN(C)C3=O
target_entity: PKD1 (Homo sapiens, UniProt Q15139)
experimental_endpoint: pIC50
qualifying_sign: =
value_reported: 5.34
//
molecule: O=C1NCCCc2c1oc1ccc(O)c(Cl)c21
target_entity: PKD1 (Homo sapiens, UniProt Q15139)
experimental_endpoint: pIC50
qualifying_sign: =
value_reported: 6.05
//
molecule: O=C1NCCCc2c1oc1ccc(O)c(F)c21
target_entity: PKD1 (Homo sapiens, UniProt Q15139)
experimental_endpoint: pIC50
qualifying_sign: =
value_reported: 6.62
//
molecule: [N-]=[N+]=Nc1ccc2sc3c(c2c1)SCCNC3=O
target_entity: PKD1 (Homo sapiens, UniProt Q15139)
experimental_endpoint: pIC50
qualifying_sign: =
value_reported: 7.10
//
molecule: O=C1NCCSc2c1sc1ccc(O)c(Br)c21
target_entity: PKD1 (Homo sapiens, UniProt Q15139)
experimental_endpoint: pIC50
qualifying_sign: =
value_reported: 7.32
//
molecule: NCCN1CCSc2c(sc3ccc(O)cc23)C1=O
target_entity: PKD1 (Homo sapiens, UniProt Q15139)
experimental_endpoint: pIC50
qualifying_sign: =
value_reported: 6.12
//
molecule: COc1ccc2oc3c(c2c1)CCCNC3=O
target_entity: PKD1 (Homo sapiens, UniProt Q15139)
experimental_endpoint: pIC50
qualifying_sign: =
value_reported: 5.62
//
molecule: O=C1NCCCSc2c1sc1ccc(O)cc21
target_entity: PKD1 (Homo sapiens, UniProt Q15139)
experimental_endpoint: pIC50
qualifying_sign: =
value_reported: 6.96
//
molecule: O=C1NCCCc2c1[nH]c1ccc(O)cc21
target_entity: PKD1 (Homo sapiens, UniProt Q15139)
experimental_endpoint: pIC50
qualifying_sign: =
value_reported: 6.89
//
molecule: O=C1NCCSc2c1sc1ccc(N=C=S)cc21
target_entity: PKD1 (Homo sapiens, UniProt Q15139)
experimental_endpoint: pIC50
qualifying_sign: =
value_reported: 5.56
//
molecule: COc1ccc2sc3c(c2c1)SCCCNC3=O
target_entity: PKD1 (Homo sapiens, UniProt Q15139)
experimental_endpoint: pIC50
qualifying_sign: =
value_reported: 6.72
//
molecule: COc1ccc2sc3c(c2c1)SCCNC3=O
target_entity: PKD1 (Homo sapiens, UniProt Q15139)
experimental_endpoint: pIC50
qualifying_sign: =
value_reported: 7.10
//
molecule: O=C1NCCSc2c1sc1cnc(O)nc21 [kmg-NB4-69A]
target_entity: PKD1 (Homo sapiens, UniProt Q15139)
experimental_endpoint: pIC50
qualifying_sign: =
value_reported: 4.60
//
molecule: O=C1NCCSc2c1sc1ccc(O)c(I)c21
target_entity: PKD1 (Homo sapiens, UniProt Q15139)
experimental_endpoint: pIC50
qualifying_sign: =
value_reported: 6.96
//
molecule: c1ccc(COc2ccc3sc4c(c3c2)SCCNC4)cc1
target_entity: PKD1 (Homo sapiens, UniProt Q15139)
experimental_endpoint: pIC50
qualifying_sign: =
value_reported: 4.40
//
molecule: Nc1ccc2[nH]c3c(c2c1)CCNC3=O
target_entity: PKD1 (Homo sapiens, UniProt Q15139)
experimental_endpoint: pIC50
qualifying_sign: =
value_reported: 4.80
//
molecule: COc1ncc2sc3c(c2n1)SCCNC3=O
target_entity: PKD1 (Homo sapiens, UniProt Q15139)
experimental_endpoint: pIC50
qualifying_sign: =
value_reported: 6.92
//
molecule: CN1CCSc2c(sc3ccc(O)cc23)C1=O
target_entity: PKD1 (Homo sapiens, UniProt Q15139)
experimental_endpoint: pIC50
qualifying_sign: =
value_reported: 6.35
//
molecule: CN1CCCc2c(oc3ccc(O)cc23)C1=O
target_entity: PKD1 (Homo sapiens, UniProt Q15139)
experimental_endpoint: pIC50
qualifying_sign: =
value_reported: 5.40
//
molecule: O=C(CCl)Nc1ccc2sc3c(c2c1)SCCNC3=O
target_entity: PKD1 (Homo sapiens, UniProt Q15139)
experimental_endpoint: pIC50
qualifying_sign: =
value_reported: 5.82
//
molecule: O=C1NCCc2c1oc1ccc(O)cc21 [kb-NB123-23A]
target_entity: PKD1 (Homo sapiens, UniProt Q15139)
experimental_endpoint: pIC50
qualifying_sign: =
value_reported: 5.85
//
molecule: O=C1NCCc2c1[nH]c1ccc(O)cc21
target_entity: PKD1 (Homo sapiens, UniProt Q15139)
experimental_endpoint: pIC50
qualifying_sign: =
value_reported: 5.80
//
molecule: O=C1NCCCSc2c1sc1ccc(OCc3ccccc3)cc21
target_entity: PKD1 (Homo sapiens, UniProt Q15139)
experimental_endpoint: pIC50
qualifying_sign: =
value_reported: 4.66
//
molecule: O=C1NCCC(O)c2c1oc1ccc(O)cc21 (stereo not shown)
target_entity: PKD1 (Homo sapiens, UniProt Q15139)
experimental_endpoint: pIC50
qualifying_sign: =
value_reported: 5.91
//
molecule: Oc1ccc2sc3c(c2c1)SCCNC3
target_entity: PKD1 (Homo sapiens, UniProt Q15139)
experimental_endpoint: pIC50
qualifying_sign: =
value_reported: 4.79
//
molecule: C=CCc1c(O)ccc2oc3c(c12)CCCNC3=O
target_entity: PKD1 (Homo sapiens, UniProt Q15139)
experimental_endpoint: pIC50
qualifying_sign: =
value_reported: 5.80
//
molecule: O=C1NCCSc2c1sc1ccc(O)cc21
target_entity: PKD1 (Homo sapiens, UniProt Q15139)
experimental_endpoint: pIC50
qualifying_sign: =
value_reported: 7.55
//
molecule: COc1ccc2c(c1)c1c([s+]2[O-])C(=O)NCCS1 (stereo not shown)
target_entity: PKD1 (Homo sapiens, UniProt Q15139)
experimental_endpoint: pIC50
qualifying_sign: =
value_reported: 5.97
//
molecule: O=C1NCCC(=NNc2ccccc2)c2c1oc1ccc(O)cc21
target_entity: PKD1 (Homo sapiens, UniProt Q15139)
experimental_endpoint: pIC50
qualifying_sign: =
value_reported: 5.95
//
molecule: O=C1NCCCc2c1oc1ccc(O)cc21
target_entity: PKD1 (Homo sapiens, UniProt Q15139)
experimental_endpoint: pIC50
qualifying_sign: =
value_reported: 6.74
//
molecule: Nc1ccc2sc3c(c2c1)SCCNC3=O
target_entity: PKD1 (Homo sapiens, UniProt Q15139)
experimental_endpoint: pIC50
qualifying_sign: =
value_reported: 5.50
//
molecule: C=CCOc1ccc2oc3c(c2c1)CCCNC3=O
target_entity: PKD1 (Homo sapiens, UniProt Q15139)
experimental_endpoint: pIC50
qualifying_sign: =
value_reported: 5.91
//
molecule: O=C1NCCC(=O)c2c1oc1ccc(O)cc21
target_entity: PKD1 (Homo sapiens, UniProt Q15139)
experimental_endpoint: pIC50
qualifying_sign: =
value_reported: 6.07
//
molecule: COc1nc(OC)c2sc3c(c2n1)SCCNC3=O [kmg-NB5-13C]
target_entity: PKD1 (Homo sapiens, UniProt Q15139)
experimental_endpoint: pIC50
qualifying_sign: <
value_reported: 4.52
